System: CCRF-CEM leukemia
Assay: NCI-60 one-dose screen, 48 h
Conditions: 10 µM unless noted
Procedure: Growth inhibition of the CCRF-CEM human tumor cell line is measured as a screen for anti-cancer activity. Cells are grown in 96 well plates and exposed to the test compound for 48 hours. Compounds are tested at a single concentration, which is 10^-5 M for most compounds. The reported endpoint is percent growth (GI% or GIPRCNT), where numbers from 0 - 100% represent growth inhibition, and numbers from -100% - 0 represent cell death. For example, a value of 40 represents 60% growth inhibition. […]
Compounds without any hit were thinned out: in the full panel of roughly 83,000, 20% have a hit. The source made the active and inactive calls. How the source made its calls: active means growth percent below 10; inactive means the rest.
Outcomes: true = active, false = inactive

Nc1nc(N)c(N=Nc2c(Br)cc(S(N)(=O)=O)cc2Br)c(N)n1 ... false
O=C1/C(=C/c2ccccc2F)CNC/C1=C\c1ccccc1F ... true
CSc1ccc(OC(C)=O)cc1C ... false
COc1cc(/C=C/C(=O)C2=C(/C=C/c3ccc(O)c(OC)c3)NC(=O)NC2c2ccc(O)c(OC)c2)ccc1O (stereo unspecified) ... false
CCCOC(=O)c1ccc2c(c1)[N+](=O)C(C(=O)c1ccccc1)=C(C(F)(F)F)[N+]2=O ... true
O=C1CCC(N2Cc3c(C#CCCCNC(=O)c4cc5c(o4)C(=O)c4ccccc4C5=O)cccc3C2=O)C(=O)N1 (stereo unspecified) ... false

Each recorded value in this set is attributed to PubChem BioAssay (NCI).
